tested on: T cell lines against natural epitope SSX-241-49; assay: Cross-reactivity and functional avidity: IFN-gamma production by T cell lines raised against natural SSX-2 41-49; type: cell-based, HHD transgenic mice; details: T cells raised to native peptide tested on analogs; footnote * and unit not given;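 further: analogs presented ex vivo by competent APCs to T cells specific for the non-mutated epitope, scored by lowest activating concentration, peak cytokine effect and concentration at that peak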
Square brackets hold non-standard residues; d marks the D form. Peptide text beside a SMILES is read from it. Nle = CCCC[C@H](N)C(=O)O
observation-type: Cross-reactivity and fct avidity (native to analogs)*

CCCC[C@H](NC(=O)[C@H](CO)NC(=O)[C@@H](NC(=O)[C@@H](N)Cc1ccccc1)C(C)C)C(=O)N[C@@H](CCCCN)C(=O)N[C@H](C(=O)N[C@@H](Cc1ccccc1)C(=O)N[C@@H](Cc1ccc(O)cc1)C(=O)N[C@H](C(=O)O)C(C)C)[C@@H](C)CC [SSX2 41-49 (K41F, A42V, E44Nle), FVS(Nle)KIFYV] (H-FVS[Nle]KIFYV-OH) = 10
CCC[C@H](NC(=O)[C@H](Cc1ccc(O)cc1)NC(=O)[C@H](Cc1ccccc1)NC(=O)[C@@H](NC(=O)[C@H](CCCCN)NC(=O)[C@H](CCC(=O)O)NC(=O)[C@H](CO)NC(=O)[C@@H](NC(=O)[C@@H](N)Cc1ccccc1)C(C)C)[C@@H](C)CC)C(=O)O [SSX2 41-49 (K41F, A42V, V49Nva)] = 0.1
CC[C@H](C)[C@H](NC(=O)[C@H](CCCCN)NC(=O)[C@H](CCC(=O)O)NC(=O)[C@H](CO)NC(=O)[C@H](CC(C)C)NC(=O)[C@@H](N)CCCCN)C(=O)N[C@@H](Cc1ccccc1)C(=O)N[C@@H](Cc1ccc(O)cc1)C(=O)N[C@H](C(=O)O)C(C)C [SSX2 41-49 (A42L)] = 0.03
CC[C@H](C)[C@H](NC(=O)[C@H](CCCCN)NC(=O)[C@H](CCC(=O)O)NC(=O)[C@H](CO)NC(=O)[C@@H](NC(=O)[C@H](N)CCCCN)C(C)C)C(=O)N[C@@H](Cc1ccccc1)C(=O)N[C@@H](Cc1ccc(O)cc1)C(=O)N[C@H](C(=O)O)C(C)C [SSX2 41-49 (K41(D-Lys), A42V)] = 10
CC[C@H](C)[C@H](NC(=O)[C@H](CCCCN)NC(=O)[C@H](CCC(=O)O)NC(=O)[C@H](CO)NC(=O)C(C)(C)NC(=O)[C@@H](N)CCCCN)C(=O)N[C@@H](Cc1ccccc1)C(=O)N[C@@H](Cc1ccc(O)cc1)C(=O)N[C@H](C(=O)O)C(C)C = 3
CC[C@H](C)[C@H](NC(=O)[C@H](CCCCN)NC(=O)[C@H](CCC(=O)O)NC(=O)[C@H](CO)NC(=O)[C@H](C)NC(=O)[C@@H](N)CCCCN)C(=O)N[C@@H](Cc1ccccc1)C(=O)N[C@@H](Cc1ccc(O)cc1)C(=O)N[C@H](C(=O)O)C(C)C [SSX2 41-49, reference compound] = 1
